Numbers sourced from ChEMBL document CHEMBL4622963.

Target entity: TRAF2 and NCK-interacting protein kinase (Homo sapiens, UniProt Q9UKE5)
Sequence (Q9UKE5 whole entry): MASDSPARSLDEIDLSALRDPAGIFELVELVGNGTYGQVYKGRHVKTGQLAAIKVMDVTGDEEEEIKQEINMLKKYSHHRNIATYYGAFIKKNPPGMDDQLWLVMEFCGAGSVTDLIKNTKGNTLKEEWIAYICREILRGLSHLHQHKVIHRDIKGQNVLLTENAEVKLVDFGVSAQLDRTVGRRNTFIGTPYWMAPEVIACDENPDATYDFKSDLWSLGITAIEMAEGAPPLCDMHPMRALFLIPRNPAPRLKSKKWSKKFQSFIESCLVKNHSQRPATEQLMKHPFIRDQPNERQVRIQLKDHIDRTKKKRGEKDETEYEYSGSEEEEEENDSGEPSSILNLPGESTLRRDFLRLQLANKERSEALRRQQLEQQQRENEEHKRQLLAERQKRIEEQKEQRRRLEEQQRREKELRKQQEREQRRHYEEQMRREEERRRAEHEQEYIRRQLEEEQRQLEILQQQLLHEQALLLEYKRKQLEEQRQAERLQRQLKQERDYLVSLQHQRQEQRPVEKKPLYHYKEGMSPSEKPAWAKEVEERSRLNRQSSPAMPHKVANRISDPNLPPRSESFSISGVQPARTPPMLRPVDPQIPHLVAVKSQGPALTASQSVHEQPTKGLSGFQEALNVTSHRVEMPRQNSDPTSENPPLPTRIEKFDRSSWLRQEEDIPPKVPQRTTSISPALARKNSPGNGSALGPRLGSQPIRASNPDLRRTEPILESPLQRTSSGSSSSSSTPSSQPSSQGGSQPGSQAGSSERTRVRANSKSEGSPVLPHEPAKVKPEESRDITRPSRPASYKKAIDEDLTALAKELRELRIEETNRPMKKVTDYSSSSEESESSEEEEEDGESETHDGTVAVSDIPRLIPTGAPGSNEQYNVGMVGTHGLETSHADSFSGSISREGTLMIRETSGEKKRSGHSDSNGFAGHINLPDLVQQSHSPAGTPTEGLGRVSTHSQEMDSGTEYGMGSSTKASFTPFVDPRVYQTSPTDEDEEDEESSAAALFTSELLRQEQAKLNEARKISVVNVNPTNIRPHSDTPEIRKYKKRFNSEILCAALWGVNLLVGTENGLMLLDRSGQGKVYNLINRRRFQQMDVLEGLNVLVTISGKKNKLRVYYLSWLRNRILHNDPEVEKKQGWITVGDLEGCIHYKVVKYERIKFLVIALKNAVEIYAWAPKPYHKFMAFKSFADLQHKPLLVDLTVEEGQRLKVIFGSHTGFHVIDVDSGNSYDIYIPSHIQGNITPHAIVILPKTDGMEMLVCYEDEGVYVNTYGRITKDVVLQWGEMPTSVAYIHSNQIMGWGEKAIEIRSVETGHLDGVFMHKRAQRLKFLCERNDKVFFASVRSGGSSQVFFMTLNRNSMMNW
Measured metric: IC50 (µM)
Quick note: give the figure in µM, leave out the unit.

| Compound structure | IC50, µM |
| --- | --- |
| CC(C)Nc1cc(Nc2ccn3nccc3n2)ncc1C(=O)NC[C@@H](F)C(C)(C)O | 0.008 |

Now let's try a different one.
[in] Item under review: CC(C)Nc1cc(Nc2nc3ccnn3cc2F)ncc1C(=O)NC[C@@H](F)C(C)(C)O . Reported IC50?
[out] 0.13

---

Test: Stability in human liver microsomes assessed as parent compound remaining
Assay type: ADME, Microsome
Measured metric: Stability (%)
Quick note: give the figure in %, leave out the unit.

Below, each entry is followed by its recorded Stability result.
| Compound structure | Stability (%) |
| --- | --- |
| CC(C)Nc1cc(Nc2ccc3nsnc3c2)ncc1C(=O)NC[C@@H](F)C(C)(C)O | 74 |
| CNC(=O)c1cnc(Nc2ccc3ncsc3c2)cc1N[C@@H](c1ccccc1)[C@H](O)CO | 90 |
| CCCCNC(=O)c1cnc(Nc2ccc3ncsc3c2)cc1NC(C)C | 55 |
| CCCNC(=O)c1cnc(Nc2ccc3ncsc3c2)cc1NC(C)C | 52 |

Now let's try a different one.
[in] Item under review: CC(C)Nc1cc(Nc2nc3ccnn3cc2F)ncc1C(=O)NC[C@@H](F)C(C)(C)O . Reported Stability?
[out] 93

---

Test: Volume of distribution at steady state in mouse at 2 mg/kg, iv administered as infusion or 10 mg/kg, po via gavage measured up to 24 hrs by LC-MS analysis
Format: ADME, organism-based
Condition summary: in vivo, read-out: Vdss
Measured metric: Vd (L/kg)
Quick note: give the figure in L/kg, leave out the unit.

[in] Item under review: CC(C)(O)[C@H](F)CNC(=O)c1cnc(Nc2ccc3ncsc3c2)cc1NC1CC1 . Reported Vd?
[out] 2.1

---

Test: Permeability across apical to basolateral side in human Caco2 cells
Condition summary: Caco-2
Measured metric: Papp A→B (×10⁻⁶ cm/s)
Quick note: give the figure in ×10⁻⁶ cm/s, leave out the unit.

Below, each entry is followed by its recorded Papp A→B result.
| Compound structure | Papp A→B / ×10⁻⁶ cm/s |
| --- | --- |
| CC(C)Nc1cc(Nc2ccn3nccc3n2)ncc1C(=O)NC[C@@H](F)C(C)(C)O | 6.9 |
| CC(C)(O)[C@H](F)CNC(=O)c1cnc(Nc2ccc3ncsc3c2)cc1NC1CC1 | 8.1 |
| CNC(=O)c1cnc(Nc2ccc3ncsc3c2)cc1NC(C)C | 21 |

[in] Item under review: CC(C)Nc1cc(Nc2nc3ccnn3cc2F)ncc1C(=O)NC[C@@H](F)C(C)(C)O . Reported Papp A→B?
[out] 21.5

[in] Entry CC(C)Nc1cc(Nc2ccc3nonc3c2)ncc1C(=O)NC[C@@H](F)C(C)(C)O please
[out] 3.8

---

Test: Drug uptake in imiquimod-induced C57BL/6 mouse model of psoriasis at 10 mg/kg, po dosed via gavage twice daily and measured after 2 hrs by LC-MS analysis
Type: ADME, organism-based
Condition summary: in vivo, read-out: Drug uptake
Measured metric: concentration at 2 h (µM)
Quick note: give the figure in µM, leave out the unit.

[in] Item under review: CC(C)Nc1cc(Nc2nc3ccnn3cc2F)ncc1C(=O)NC[C@@H](F)C(C)(C)O . Reported concentration at 2 h?
[out] 9.4
